- Tested on: pFGFR4 in MDA-MB-453 cells
- Experiment Notes: FGFR4 signaling, pFGFR4 (MDA); Western blot (Method A), MSD (Method B), ELISA (Method C)
- Type: cell-based
- Run Parameters: Homo sapiens, MDA-MB-453, MDA-MB-453 cells; Method B (MSD) for signaling EC50 determination
# EC50 per record follows

{"Molecule": "C=CC(=O)N[C@H]1COC[C@H]1Nc1ncc2c(n1)N(C)C(=O)N(c1c(Cl)c(OC)cc(OC)c1Cl)C2", "EC50": "< 100 nM"}
{"Molecule": "C=CC(=O)Nc1cc(N(C)CCOC)ccc1Nc1ncc2c(n1)N(Cc1ccccc1)C(=O)N(c1cc(OC)cc(OC)c1)C2", "EC50": "101 to 500 nM"}
{"Molecule": "C=CC(=O)N[C@@H]1CCCC[C@@H]1Nc1ncc2c(n1)N(Cc1nccs1)C(=O)N(c1c(Cl)c(OC)cc(OC)c1Cl)C2", "EC50": "> 1000 nM"}
{"Molecule": "C=CC(=O)Nc1ccccc1Nc1ncc2c(n1)NC(=O)N(c1cc(OC)cc(OC)c1)C2", "EC50": "501 to 999 nM"}
{"Molecule": "C=CC(=O)NC1CCCCC1Nc1ncc2c(n1)N(CC(F)F)C(=O)N(c1c(Cl)c(OC)cc(OC)c1Cl)C2 (racemic)", "EC50": "101 to 500 nM"}
{"Molecule": "COc1cc(OC)cc(N2Cc3cnc(Nc4ccccc4)nc3N(C)C2=O)c1", "EC50": "101 to 500 nM"}

# context switch: different molecule, same EC50
Task: Request body: readout EC50, system pFGFR4 in MDA-MB-453 cells, query C=CC(=O)NC1COCC1Nc1ncc2c(n1)N(C)C(=O)N(c1c(Cl)c(OC)cc(OC)c1Cl)C2 (stereo not shown) . Return the value.
Result: < 100 nM
